Data provenance is patent US20250223307A1.

Below are IC50 values recorded for MDM2 (Homo sapiens).

Record excerpt, results attached:
COMPOUND	IC50
CCN(CC)CCNC(=O)C(c1ccc(Cl)cc1)N1C(=O)N/C(=C\c2c[nH]c3cc(Cl)ccc23)C1=O (stereo not drawn)	10 to 100 nM
Cc1c(Cl)ccc2c(/C=C3\NC(=O)N(C(C(=O)NC(CO)(CO)CO)c4ccc(F)c(F)c4)C3=O)c[nH]c12 (stereo not drawn)	< 10 nM
O=C1N/C(=C\c2c[nH]c3c(F)c(Cl)ccc23)C(=O)N1C(CO)c1ccc(Cl)cc1F (stereo not drawn)	10 to 100 nM
COc1c(Cl)ccc2c(/C=C3\NC(=O)N(C(C)c4ccc(F)c(F)c4)C3=O)c[nH]c12 (stereo not drawn)	10 to 100 nM
O=C1N/C(=C\c2c[nH]c3cc(Cl)ccc23)C(=O)N1C(CO)c1ccc(Cl)c(F)c1 (stereo not drawn)	10 to 100 nM
O=C1N/C(=C\c2c[nH]c3c(OCF)c(Cl)ccc23)C(=O)N1Cc1ccc(Cl)cc1	10 to 100 nM
N#Cc1ccc(CN2C(=O)N/C(=C\c3c[nH]c4c(F)c(Cl)ccc34)C2=O)cc1F	< 10 nM
Cc1c(Cl)ccc2c(/C=C3\NC(=O)N(C(C(=O)NCC45CC(O)(C4)C5)c4ccc(F)c(F)c4)C3=O)c[nH]c12 (stereo not drawn)	< 10 nM
O=C1N/C(=C\c2c[nH]c3c(F)c(Cl)ccc23)C(=O)N1C(CO)c1cc(F)c(Cl)c(F)c1 (stereo not drawn)	10 to 100 nM
Cc1c(Cl)ccc2c(/C=C3\NC(=O)N(C(C(=O)NC45CCC(O)(CC4)CC5)c4ccc(F)c(F)c4)C3=O)c[nH]c12 (stereo not drawn)	< 10 nM

Provide the reported IC50 of each entry below, same order.
1. O=C1N/C(=C\c2c[nH]c3c(F)c(Cl)ccc23)C(=O)N1Cc1ccc(Cl)c(F)c1F
2. O=C1N/C(=C\c2c[nH]c3c(F)c(Cl)ccc23)C(=O)N1C(CO)c1ccc(Cl)c(F)c1 (stereo not drawn)
3. N#Cc1ccc(C(C(=O)NC(CO)CO)N2C(=O)N/C(=C\c3c[nH]c4cc(Cl)ccc34)C2=O)cc1 (stereo not drawn)

["10 to 100 nM", "10 to 100 nM", "10 to 100 nM"]

Please go through the list and note IC50 for each compound.
1. N#Cc1ccc(C(C(=O)NCCO)N2C(=O)N/C(=C\c3cn(P(=O)(O)O)c4c(F)c(Cl)ccc34)C2=O)cc1F (stereo not drawn)
2. O=C1N/C(=C\c2c[nH]c3cc(Cl)ccc23)C(=O)N1Cc1ccc(F)c(F)c1

1: 10 to 100 nM; 2: 10 to 100 nM
